Collected pKi values appear next to each entry.
Assay: DRUGMATRIX: Sigma2 radioligand binding (ligand: [3H] Ifenprodil)
Format: cell membranes, Rattus norvegicus, Wistar, Brain, Membrane
Conditions: Not Active = under 50% inhibition at 10 µM; read-out: Ki
Scale: pKi equals -log10([C]), with [C] in mol/L.

O=C1CC2(CCCC2)CC(=O)N1CCCCN1CCN(c2ncccn2)CC1
5.68
CCCCOc1ccc(OCCCN2CCOCC2)cc1
6.20
OC(CCN1CCCCC1)(c1ccccc1)C1CCCCC1 (stereo unspecified)
5.72
N=C(Nc1ccccc1)Nc1ccccc1
5.79
O=C(c1ccc(OCCN2CCCCC2)cc1)c1c(-c2ccc(O)cc2)sc2cc(O)ccc12
6.63

# context switch: different compound, same pKi
Return reported pKi; argument: CC(=O)N1CCN(c2ccc(OCC3COC(Cn4ccnc4)(c4ccc(Cl)cc4Cl)O3)cc2)CC1 (stereo unspecified)
5.01
